# Assay info: physchem
# Description: Dissociation constant (pKa)
Readout label: pKa

Nc1cccnc1N1CCc2ccccc2C1 5
Cc1ccc(N2CCc3ccccc3C2)nc1 6.5
Nc1ccnc(N2CCc3ccccc3C2)c1 8.5
Cc1cnc(N2CCc3ccccc3C2)cc1N 8.7
c1ccc(N2CCc3ccccc3C2)nc1 6.4
Cc1cc(NCCO)cc(N2CCc3ccccc3C2)n1 9.2
CC(=O)Nc1ccnc(N2CCc3ccccc3C2)c1 6.5
c1ccc(CNc2ccnc(N3CCc4ccccc4C3)c2)cc1 8.6
OCCNc1ccnc(N2CCc3ccccc3C2)c1 8.9
Cc1ccnc(N2CCc3ccccc3C2)c1 6.6
